B1: HDAC6 (parent)
chain: KMKTRELHRESSNFDSIYICPSTF

- Variants of: B1
- assay.method.text: protein stability index of a GFP-peptide fusion (GPS, HEK-293T) (PSI 1-6); higher = more stable;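 further: lentivirally expressed fusions sorted by FACS into six bins by GFP to DsRed ratio, PSI derived from sequencing read proportions per bin multiplied by bin number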
- cond: c terminus: a fixed tail appended
measured.endpoint: protein stability index

* F14D | 2.79
* L7G | 3.12
* S11N | 2.3
* S22M | 1.42
* Y18G | 3.09
* Y18S | 2.72
* F14M | 2.44
* D15M | 1.92
* S22R | 1.83
* F14K | 3.03
* H8K | 2.5
* S11V | 2.3
* R9L | 2.07
* N13S | 1.97
* T4N | 2.03
* I17D | 3.75
* T23E | 1.96
* K3N | 2.32
* N13D | 2.61
* C20Y | 2.07
* S16G | 2.14
* S11Y | 1.98
* S16E | 3.02
* N13E | 2.23
* R5Y | 1.8
* S22I | 1.65
* F14P | 2.99
* S16Q | 1.91
* E10L | 2.15
* N13V | 1.98
* C20G | 2.22
* S22C | 1.85
* E10I | 1.85
* T4V | 2.08
* T23F | 1.96
* R5V | 2.27
* E6A | 1.99
* P21Q | 1.94
* L7A | 3.33
* I17W | 2.06
* Y18K | 2.44
* I19V | 2.8
* K1I | 1.86
* C20E | 3.34
* N13C | 1.79
* C20S | 2.48
* F14T | 3.11
* D15W | 2.21
* F24Y | 2.88
* R9C | 2.39
* D15F | 2.02
* S22Y | 1.98
* E10G | 3.45
* L7F | 2.53

FYI, the data here is from the supplement of paper PMC10567573.
